Values compiled from the supplement of paper PMC9135407.

Test system: primary human hepatic stellate cells (donor 1)
Experiment: scaled lipid accumulation score (0 = DMSO-like, 1 = nortriptyline-like); higher = stronger HSC inactivation (lipid re-accumulation), active = hit call of the paper
Conditions: library stock concentration: 10 mM; 48 h
Structures can show the parent of a compound that is named as a salt. The whole screen tested about 5,800 compounds, of which about 620 (11%) showed activity.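 Rule for the calls: active = score above a cut-off or among the top three wells of a plate; in these data no inactive exceeds 0.85.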 This is one part of a sample in which actives are shown more often than they occur.
Outcome (select one): active, inactive

Enquiry: Could you please tell me the result logged for CCN(CC)CCOCCOC(=O)C1(c2ccccc2)CCCC1 [Pentoxyverine Citrate] in this assay?
Return: inactive

Enquiry: Could you please tell me the result logged for C[C@@H]1[C@H](O)[C@@H](C)/C=C/C=C/C=C/C=C/C=C/C=C/C=C/[C@H](O[C@@H]2O[C@H](C)[C@@H](O)[C@H](N)[C@@H]2O)C[C@@H]2O[C@](O)(C[C@@H](O)C[C@@H](O)[C@H](O)CC[C@@H](O)C[C@@H](O)CC(=O)O[C@H]1C)C[C@H](O)[C@H]2C(=O)O [Amphotericin b] in this assay?
Return: inactive

Enquiry: Could you please tell me the result logged for C[C@H]1[C@H](OC(=O)CCC(=O)O)O[C@@H]2O[C@@]3(C)CC[C@H]4[C@H](C)CC[C@@H]1[C@@]24OO3 in this assay?
Return: inactive

Enquiry: Could you please tell me the result logged for O=C(O)CCc1nc2ccccc2[nH]1 in this assay?
Return: inactive

Enquiry: Could you please tell me the result logged for CCN(CC)CCOc1ccc(C(=C(Cl)c2ccccc2)c2ccccc2)cc1.O=C(O)CC(O)(CC(=O)O)C(=O)O in this assay?
Return: active

Enquiry: Could you please tell me the result logged for CCc1cc(Cl)c(OC)c(C(=O)NC[C@@H]2CCCN2CC)c1O in this assay?
Return: inactive

Enquiry: Could you please tell me the result logged for COc1ccc(NS(=O)(=O)c2ccc(I)cc2)cc1N1CCN(C)CC1 in this assay?
Return: inactive

Enquiry: Could you please tell me the result logged for O=C(O)c1ccc(N2C(=O)C(=Cc3ccc(-c4ccc([N+](=O)[O-])cc4)o3)C=C2c2ccccc2)cc1 in this assay?
Return: inactive

Enquiry: Could you please tell me the result logged for O=c1c2sc(-c3ccc(F)cc3)cc2ncn1Cc1nc2ccccc2[nH]1 in this assay?
Return: active

Enquiry: Could you please tell me the result logged for Cc1cc(/N=N/c2cc(S(=O)(=O)O)c(C)cc2C)c(N)cc1O in this assay?
Return: inactive

Enquiry: Could you please tell me the result logged for CCN(CC)CCOCCOC(=O)C(CC)(CC)c1ccccc1.O=C(O)CC(O)(CC(=O)O)C(=O)O in this assay?
Return: active

Enquiry: Could you please tell me the result logged for CC1=C(C)C(=O)C(CCCCC#CCCCC#CCO)=C(C)C1=O in this assay?
Return: inactive

Enquiry: Could you please tell me the result logged for C[C@H]1[C@H](OC(=O)CCC(=O)O)O[C@@H]2O[C@@]3(C)CC[C@H]4[C@H](C)CC[C@@H]1[C@@]24OO3 [Artesunate] in this assay?
Return: inactive

Enquiry: Could you please tell me the result logged for CCCC(C(=O)OCCN(CC)CC)(c1ccccc1)c1ccccc1 [SKF-525A hydrochloride] in this assay?
Return: inactive

Enquiry: Could you please tell me the result logged for C[C@@H]1[C@H](O)[C@@H](C)/C=C/C=C/C=C/C=C/C=C/C=C/C=C/[C@H](O[C@@H]2O[C@H](C)[C@@H](O)[C@H](N)[C@@H]2O)C[C@@H]2O[C@](O)(C[C@@H](O)C[C@@H](O)[C@H](O)CC[C@@H](O)C[C@@H](O)CC(=O)O[C@H]1C)C[C@H](O)[C@H]2C(=O)O [Amphotericin B] in this assay?
Return: inactive
